Each entry below carries its recorded IC50.
System: WM-164 melanoma cells
Assay: SRB cytotoxicity assay, WM-164
Type: cell-based, human
Settings: Table 12; 48 h; read-out: IC50 ± SEM WM164

COMPOUND	IC50
O=C(c1cc(O)c(O)c(O)c1)c1c[nH]c(-c2ccc(O)c(O)c2)n1 [13ha]	> 10 µM

As a next step, examine the compound that follows.
Return value of IC50 for input O=C(c1ccc(F)cc1)c1c[nH]c(-c2ccc(O)cc2)n1 [12kb] , no commentary. > 10 µM

* * *

System: PC-3/TxR cells
PROPERTY_MEASURED: IC50 (nM)
Report the figure in nM without appending any unit label.

Return value of IC50 for input COc1cc(C(=O)c2cn(S(=O)(=O)c3ccccc3)c(-c3cn(S(=O)(=O)c4ccccc4)c4ccccc34)n2)cc(OC)c1OC [17yaa] , no commentary. 2.1

* * *

Test: Metabolic stability in human liver microsomes
Conditions: Table 20
Where Half life in Human liver microsome equals or exceeds 40 min, the correct label is 1.0; where it does not, the label is 0.0.

Answered examples (3):
MOLECULE	ASSIGNED_CATEGORY
Fc1ccc(-c2nccc3ccc(-c4ccc5[nH]ccc5c4)cc23)cc1	1.0
COc1cc(/C(=N/O)c2csc(-c3ccccc3)n2)cc(OC)c1OC [2e-cis]	0.0
COc1cc(C(=O)c2csc(-c3ccccc3)n2)cc(OC)c1OC	0.0

Moving on to another molecule below.
Tell me whether Half life in Human liver microsome is at least 40 min here: COc1cc(-c2nccc3ccc(-c4ccc5[nH]ccc5c4)cc23)cc(OC)c1OC 0.0

* * *

Tested on: prostate cancer cell lines (LNCaP, PC-3, DU-145, PPC-1)
Assay: SRB cytotoxicity, prostate cancer cell lines (panel statements)
Settings: Homo sapiens, read-out: IC50 against prostate cancer cells
PROPERTY_MEASURED: IC50

Return value of IC50 for input COc1cc(C(=O)c2cccc(-c3ccccc3)n2)cc(OC)c1OC , no commentary. 0.012 to 0.035 µM
